# TESTED SYSTEM: UniProt P04156
# Assay type: functional, cell-based
Active and inactive are the calls of the source.
Output constraint: value belongs to active, inactive

Prompt line: Tell me the assay call for "CCCCNC(=O)CSc1nc(CCC)nc2ccccc12" please.
Response line: inactive

Prompt line: Which outcome was entered for the compound "Cc1cc2cc(CNC(=O)c3ccc(S(=O)(=O)N4CCCC4)cc3)ccc2n1C" in this test?
Response line: inactive

Prompt line: State the result this test recorded for "N#Cc1c(-c2cccs2)nc(SCc2ccc(Cl)cc2)[nH]c1=O" .
Response line: active

Prompt line: GET /call?item= "NC(=O)CSc1nnc2n(-c3ccccc3)c(=O)c3c4c(sc3n12)CCCCC4" returns the recorded outcome of this test.
Response line: active

---

Kindly supply the reported EC50 values for the records listed here.
# MEASUREMENT DESCRIPTION: Luminescence Cell-Based Dose Confirmation HTS to Identify Inhibitors of Platelet Dense Granule Release. [Related pubchem assays: 1663 (Primary HTS), 1678 (Summary of Project)]
# Assay type: functional
The source made the active and inactive calls.

The compound "CC(=O)c1cccc(-n2nnnc2SCC(=O)N2CCCC2)c1" showed EC50 equal to > 112 µM (not active)

Field EC50 (entry "Cn1c(=O)c2c(nc(CN3CCOCC3)n2CC(=O)c2ccccc2)n(C)c1=O" ) reads 39 µM (active)

Lab note: "Cc1ccc(/C=N/NC(=O)c2nn(C)cc2Cl)cc1" gave EC50 of 16.6 µM (active)

EC50 measured on O=C(C(Cc1ccccc1)n1cccc1)N1CCN(c2ncccn2)CC1 (stereo not given) = > 112 µM (not active)

Quick note, EC50 for "Cc1cccc(-c2cnn(-c3ccccc3)c2N)c1" landed at 31.7 µM (active)

---

# TESTED SYSTEM: FAD-linked sulfhydryl oxidase ALR (Homo sapiens, UniProt P55789)
# Sequence (P55789 whole entry): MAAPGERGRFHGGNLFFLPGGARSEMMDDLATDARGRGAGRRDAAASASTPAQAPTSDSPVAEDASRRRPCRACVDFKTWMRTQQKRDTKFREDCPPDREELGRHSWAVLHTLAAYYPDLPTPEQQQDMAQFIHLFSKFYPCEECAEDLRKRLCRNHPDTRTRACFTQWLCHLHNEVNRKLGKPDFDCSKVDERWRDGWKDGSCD
# MEASUREMENT DESCRIPTION: ALR-catalysed DTT oxidation blockers – biochemical, H2O2 detection, luminescence, cherry-pick, dose response (AID 493248)
Where a name gives a salt, the structure may show the parent alone. Active and inactive are the calls of the source.
Kindly supply the reported AC50 values for the records listed here.

Looking up "Cc1ccc(S(=O)(=O)NNc2ccccc2)cc1" , I found its AC50 recorded as 623 nM (active)

Query "c1ccc(CNc2ncnc3sc4c(c23)CCCC4)nc1" yields AC50 of 37200 nM (active)

Looking up Oc1ccc(C2CNCCc3c2cc(O)c(O)c3Cl)cc1 (stereo unspecified) [FENOLDOPAM MESYLATE] , I found its AC50 recorded as 1370 nM (active)

Recorded result, "CCN(CC)c1ccc(NC(=O)c2ccc(Br)o2)cc1" , AC50: 745 nM (active)

Noted for O=C(NCC(c1ccco1)N1CCc2ccccc21)c1ccccc1F (stereo unspecified) : its AC50 reads 1670 nM (active)

The reported AC50 of the molecule "CCN(CCCNS(=O)(=O)c1ccc2c(c1)CCN2C(C)=O)c1cccc(C)c1" was 2810 nM (active)

---

Kindly state EC50 for each of the entries shown.
# TESTED SYSTEM: RNA-binding protein pos-1 (Caenorhabditis elegans, UniProt G5EF15)
# Sequence (G5EF15 whole entry): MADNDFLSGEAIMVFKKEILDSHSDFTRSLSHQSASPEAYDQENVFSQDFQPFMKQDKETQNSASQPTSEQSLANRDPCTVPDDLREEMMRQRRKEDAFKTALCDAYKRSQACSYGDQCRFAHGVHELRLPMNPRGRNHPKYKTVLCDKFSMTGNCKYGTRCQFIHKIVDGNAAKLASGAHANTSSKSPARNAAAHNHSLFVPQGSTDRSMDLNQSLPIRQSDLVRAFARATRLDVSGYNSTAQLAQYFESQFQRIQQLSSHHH
# MEASUREMENT DESCRIPTION: disruptors of C. elegans POS-1 RNA interaction – biochemical, fluorescence polarization, dose response (AID 1964);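 further: purified POS-1 fused to maltose binding protein made in E. coli; potency of compounds blocking POS-1 binding to fluorescent RNA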
Activity calls are given as the source filed them.

The molecule identified as "C=CCN1C(=O)NC(=O)/C(=C/c2ccc(OC)c(CSc3ccccn3)c2)C1=O" registered its EC50 at > 300 µM (not active)

Record C=CCN1C=C2C(=O)C(C)(OC(=O)CCC(=O)OC)C(=O)C(Br)=C2C=C1c1ccc(OC)cc1 (centres undefined) . Reported EC50: 50.2 µM (active)

Per the records, this molecule ( CN(C)[C@@H]1C(=O)C(C(N)=O)=C(O)[C@@]2(O)C(O)=C3C(=O)c4c(O)cccc4[C@@](C)(O)C3[C@H](O)C12 (some centres undefined) ) has EC50 equal to 54.1 µM (active)

molecule "Cc1ccc(-c2cc(-c3ccco3)c(C#N)c(=O)[nH]2)cc1" , EC50 observed: 26.1 µM (active)

So, "Cc1c(C(=O)O)cccc1-n1c(C)cc(C=O)c1C" ? Its EC50 was > 300 µM (not active)

Noted for "O=C(Nc1ccccc1O)c1cccc(S(=O)(=O)Nc2ccccc2O)c1" : its EC50 reads 59.1 µM (active)

Lab note: measured EC50 of "O=C(OCC(=O)c1ccco1)c1ccc2ncsc2c1" was > 300 µM (not active)

Measured EC50, "CCOC(=O)C1CCN(C(=O)c2ccc3c(c2)NC(=O)/C(=C\c2ccc(C)cc2)S3)CC1" : 7.37 µM (active)

Entry under test: "COc1ccc2c(c1)c1nc3ccccc3nc1n2Cc1ccc(OC)c(OC)c1" . Its EC50 was 32.6 µM (active)

---

# TESTED SYSTEM: Replicative DNA helicase DnaB (Mycobacterium tuberculosis)
# MEASUREMENT DESCRIPTION: DnaB intein splicing inhibitors, dose response, biochemical, cell-free fluorescence (AID 449749)
# Type: functional
Calls of active or inactive are those of the source.
Tick one outcome: YES for active, NO for inactive

Prompt line: Short answer needed: outcome of this test for "COC(=O)CCSc1cc(NCCOC(C)=O)c([N+](=O)[O-])c2nonc12" ?
Response line: YES

Prompt line: Which outcome was entered for the compound "O=C(c1ccco1)N1CCN(c2nc(C3CC3)nc3sc4c(c23)CCCC4)CC1" in this test?
Response line: YES

Prompt line: Call for entry "COc1ccc(OC)c(C(c2c(C)n[nH]c2O)c2c(C)n[nH]c2O)c1" :
Response line: YES

Prompt line: Please state the recorded outcome for this compound: "COc1ccc(C(=O)c2c(C(F)(F)F)oc3c2C(=O)c2ccccc2C3=O)cc1OC"
Response line: YES

Prompt line: Please state the recorded outcome for this compound: O=C(NC1C(=O)NNC1c1ccccc1)c1ccccc1 (stereo not drawn)
Response line: YES

Prompt line: Which outcome was entered for the compound "Cc1ccc(C/N=C/c2[nH]c3ccc(Br)c(Cl)c3c2O)cc1" in this test?
Response line: NO

Prompt line: Dear colleague, could you share the recorded outcome for "COc1ccc(CN2C(=O)NC(=O)/C(=C\NNC(=O)c3ccccc3O)C2=O)cc1" when you have a moment?
Response line: YES

Prompt line: Look up the recorded call for Cc1nn(-c2cccc(Cl)c2)c2c1C(c1ccncc1)C(C#N)=C(N)O2 (stereo not drawn) in this test.
Response line: YES

Prompt line: How did this test come out for "Nc1c(C(=O)NCCCc2ccccc2)c2nc3ccccc3nc2n1Cc1cccs1" ?
Response line: YES

Prompt line: Name the outcome recorded for "CN(C)c1ccc(NC(=O)c2ccncc2)c2ccccc12" in the assay.
Response line: YES

Prompt line: Each compound tested received a call. Report the one for CC(C)(C)NC(=O)C(c1cccs1)N(CC1CCCO1)C(=O)c1ccc(-c2ccccc2)[nH]1 (stereo not drawn) .
Response line: YES

Prompt line: Which result was noted for this compound in the test: "O=C(c1c[nH]c(C(=O)C(Cl)(Cl)Cl)c1)c1ccccc1F"
Response line: YES

---

Provide the reported EC50 of each item.
# MEASUREMENT DESCRIPTION: Luminescence Cell-Based Dose Confirmation HTS to Identify Activators of 5'UTR Stem-Loop Driven Alpha-Synuclein mRNA Translation in H4 Neuroglioblastoma Cells. [Related pubchem assays: 1829 (Project Summary), 1814 (Primary HTS)]
# Format: functional
Active and inactive are the calls of the source.

Lab note: measured EC50 of "Cc1ccc2[nH]c(SCC(=O)c3ccc(O)cc3O)nc2c1" was 9.48 µM (active)

response.value for "COCCn1c(C)cc(C(=O)CN2C(=O)NC3(CCCCCCC3)C2=O)c1C" (field: EC50) = 0.94 µM (active)

The compound listed as Cc1ccc(C2CC(c3ccccc3)=NN2c2ccccc2)o1 (stereo unspecified) has a reported EC50 of 111 µM (active)

// recorded EC50 for FC(F)Oc1ccc(C2NC(c3ccccc3)=NO2)cc1 (stereo unspecified) : 0.115 µM (active)

What the record says about "COc1ccccc1C(=O)Nc1nnc(CCc2ccccc2)s1" : EC50 is > 120 µM (not active)

EC50 reading for CC(C)c1ccc(NC(=O)[C@@H]2CCC(=O)N2C2OC(=O)c3ccccc32)cc1 (stereo partly specified) : 0.143 µM (active)
